- target.under.test: vanilloid receptor (Rattus norvegicus, UniProt O35433)
- Construct: DRG nerve cells from the primary culture of 2 days were equilibrated; endogenous in cells; host or cells: primary culture of dorsal root ganglion neurons from neonatal SD rats
- Sequence (O35433 whole entry): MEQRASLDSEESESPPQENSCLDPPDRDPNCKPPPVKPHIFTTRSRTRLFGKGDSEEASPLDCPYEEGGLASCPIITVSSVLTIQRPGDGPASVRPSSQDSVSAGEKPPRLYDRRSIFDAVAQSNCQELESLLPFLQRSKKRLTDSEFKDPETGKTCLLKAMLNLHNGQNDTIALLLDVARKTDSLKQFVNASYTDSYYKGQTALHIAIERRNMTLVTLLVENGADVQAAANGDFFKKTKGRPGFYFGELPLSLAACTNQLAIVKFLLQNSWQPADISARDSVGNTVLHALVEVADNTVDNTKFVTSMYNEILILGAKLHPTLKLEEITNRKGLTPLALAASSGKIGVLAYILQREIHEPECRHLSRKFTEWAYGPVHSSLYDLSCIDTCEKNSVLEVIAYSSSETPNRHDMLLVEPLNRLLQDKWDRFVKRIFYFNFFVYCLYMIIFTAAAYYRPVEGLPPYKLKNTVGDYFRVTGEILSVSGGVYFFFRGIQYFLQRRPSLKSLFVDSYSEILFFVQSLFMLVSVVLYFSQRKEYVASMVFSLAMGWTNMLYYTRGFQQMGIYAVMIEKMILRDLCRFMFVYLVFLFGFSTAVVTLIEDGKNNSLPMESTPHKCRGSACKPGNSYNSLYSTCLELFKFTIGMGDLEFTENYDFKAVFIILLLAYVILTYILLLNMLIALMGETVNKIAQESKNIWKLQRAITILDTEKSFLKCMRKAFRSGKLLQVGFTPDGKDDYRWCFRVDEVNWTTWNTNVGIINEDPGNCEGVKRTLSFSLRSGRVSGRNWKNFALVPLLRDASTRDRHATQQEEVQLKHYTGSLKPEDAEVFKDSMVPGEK
- measurement.notes: 45Ca influx test in cultured neonatal rat DRG neurons, inhibition of capsaicin response
- Format: cell-based
- settings: neonatal rat DRG neurons, capsaicin 0.5 μM, 45Ca influx; read-out: Antagonist Calcium Uptake Test (IC50)
- Method: 1) Separation of Spinal Dorsal Root Ganglia (DRG) in Newborn Rats and Primary Culture Thereof Neonatal (2-3 day old or younger than 2-3 day old) SD rats were put in ice for 5 minutes to anesthetize and disinfected with 70% ethanol. […] The DRG were incubated sequentially at 37° C. for 30 mins in 200 U/ml collagenase and 2.5 mg/ml trypsin, separately. […]
pIC50: −log10 of the molar value.
parameter: pIC50

{"compound": "CS(=O)(=O)Nc1c(F)cc(CNC(=O)/C=C/c2ccc(C(F)(F)F)nc2N2CCOCC2)cc1C#N", "endpoint.value": 5.23}
{"compound": "CCC(C)Oc1nc(C(F)(F)F)ccc1/C=C/C(=O)NCc1ccc(NS(C)(=O)=O)c(C)c1 (stereo not drawn)", "endpoint.value": 6.92}
{"compound": "Cc1cc(CNC(=O)/C=C/c2ccc(C(F)(F)F)nc2N2CCOCC2)cc(F)c1NS(C)(=O)=O", "endpoint.value": 6.38}
{"compound": "CC(C)(C)c1ccc(OCC(=O)NCc2ccc(NS(C)(=O)=O)c(F)c2)c(Br)n1", "endpoint.value": 5.80}
{"compound": "C#Cc1cc(CNC(=O)/C=C(\\CCC)c2ccc(C(F)(F)F)nc2CCC)cc(F)c1NS(C)(=O)=O", "endpoint.value": 6.62}
{"compound": "CS(=O)(=O)Nc1ccc(CNC(=O)/C=C/c2ccc(C(F)(F)F)nc2Sc2ccccc2)cc1F", "endpoint.value": 5.01}
{"compound": "C#Cc1cc(CNC(=O)/C=C/c2ccc(C(F)(F)F)nc2CCCC)cc(F)c1NS(C)(=O)=O", "endpoint.value": 7.48}
{"compound": "CS(=O)(=O)Nc1ccc(CNC(=O)/C=C/c2ccc(C(F)(F)F)nc2OCc2ccccc2)cc1F", "endpoint.value": 5.85}
{"compound": "CCNc1nc(C(F)(F)F)ccc1/C=C/C(=O)N[C@H](C)c1cc(F)c(NS(C)(=O)=O)c(F)c1", "endpoint.value": 7.17}
{"compound": "COCCNc1nc(C(F)(F)F)ccc1/C=C/C(=O)NCc1cc(F)c(NS(C)(=O)=O)c(C#N)c1", "endpoint.value": 6.08}

P: C#Cc1cc(CNC(=O)/C=C/c2ccc(C(F)(F)F)nc2COCC)cc(F)c1NS(C)(=O)=O
Q: C#Cc1cc(CNC(=O)/C=C/c2ccc(C(F)(F)F)nc2NC(C)CC)cc(F)c1NS(C)(=O)=O (stereo not drawn)
R: C=Cc1cc(CNC(=O)/C=C/c2ccc(C(F)(F)F)nc2NCC)cc(F)c1NS(C)(=O)=O
## Input Let's sort these by pIC50, smallest first. Go ahead? Answer format: the labels, in the requested order.
## Output P, Q, R

a: CCOC(=O)C1CCN(c2nc(C(F)(F)F)ccc2/C=C/C(=O)NCc2ccc(NS(C)(=O)=O)c(F)c2)CC1
b: CCCCc1nc(C(F)(F)F)ccc1/C=C/C(=O)NCc1cc(F)c(NS(C)(=O)=O)c(F)c1
## Input I would appreciate it if you could say which entry, a or b , has the lower pIC50 value. Record your answer as the label of the chosen record.
## Output a
(a: 6.26, b: 7.07)

A: C#Cc1cc(CNC(=O)/C=C/c2ccc(C(F)(F)F)nc2NC(C)C)cc(F)c1NS(C)(=O)=O
B: CCOC(=O)C1CCCN(c2nc(C(F)(F)F)ccc2/C=C/C(=O)NCc2cc(F)c(NS(C)(=O)=O)c(C#N)c2)C1 (stereo not drawn)
C: CCCCc1nc(C(F)(F)F)ccc1/C=C/C(=O)N[C@H](C)c1ccc(NS(C)(=O)=O)c(F)c1
## Input Order the records so the highest pIC50 appears first and the lowest last. Answer format: the labels, in the requested order.
## Output C, A, B
(C: 7.38, A: 7.16, B: 6.33)
